- Subject of test: P. falciparum apicoplast DNA polymerase (Pf-apPOL) (Plasmodium falciparum, UniProt Q8ILY1)
- Sequence (Q8ILY1 entry or part of it): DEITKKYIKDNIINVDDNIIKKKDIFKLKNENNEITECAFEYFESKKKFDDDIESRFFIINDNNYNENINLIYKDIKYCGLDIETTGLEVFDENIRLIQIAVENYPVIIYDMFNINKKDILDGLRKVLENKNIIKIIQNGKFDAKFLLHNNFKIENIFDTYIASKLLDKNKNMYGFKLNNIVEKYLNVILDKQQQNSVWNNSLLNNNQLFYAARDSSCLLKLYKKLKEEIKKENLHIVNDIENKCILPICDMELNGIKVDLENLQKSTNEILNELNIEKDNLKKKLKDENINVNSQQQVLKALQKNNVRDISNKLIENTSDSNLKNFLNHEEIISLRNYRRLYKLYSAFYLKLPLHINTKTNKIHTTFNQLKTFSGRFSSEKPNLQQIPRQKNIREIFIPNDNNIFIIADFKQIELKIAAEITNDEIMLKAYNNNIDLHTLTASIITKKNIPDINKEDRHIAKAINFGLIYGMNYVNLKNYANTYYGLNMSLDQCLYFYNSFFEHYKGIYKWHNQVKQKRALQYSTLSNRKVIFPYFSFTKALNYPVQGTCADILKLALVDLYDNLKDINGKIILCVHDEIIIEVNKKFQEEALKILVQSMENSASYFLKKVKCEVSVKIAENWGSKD
- Assay procedure: Fluorescence-based high-throughput DNA polymerase assay (molecular beacon), primary screen and dose-response
- Assay type: biochemical
- Condition info: DRC-2; read at 40'; concentration 80
Property label: % inhibition Apol 40' 80

Field: example entries. Status: answers known.
Query :: Notebook entry, P. falciparum apicoplast DNA polymerase (Pf-apPOL) (Plasmodium falciparum, UniProt Q8ILY1) assay: % inhibition Apol 40' 80 of Cc1ccsc1Cn1c(C)ccc1C [Molecule 70, Cc1ccsc1Cn1c(C)ccc1C] = ?
Result :: 62%

Query :: Try this compound next: Cc1cc2[nH]c(C(=O)Nc3ccc(F)cc3)c(CN3CCOCC3)c2s1 [Molecule 60]
Result :: 60%

***
Query :: Notebook entry, P. falciparum apicoplast DNA polymerase (Pf-apPOL) (Plasmodium falciparum, UniProt Q8ILY1) assay: % inhibition Apol 40' 80 of Cc1cccc(-c2noc(C(=O)NNC(=O)C(Cl)(Cl)Cl)n2)c1 [KU0266208] = ?
Result :: 58%

---

Hi there, I'd appreciate the recorded DNA Pol for every entry that follows.
- Subject of test: P. falciparum apicoplast DNA polymerase (Pf-apPOL) (Plasmodium falciparum)
- Assay procedure: Fluorescence-based high-throughput DNA polymerase assay (molecular beacon), primary screen and dose-response
- Type: biochemical
- Condition info: DNA Pol (primary screen value); 90 min, 10 µM
Give bare numbers.

Field: example entries. Status: answers known.
Query :: Which measured DNA Pol value corresponds to `COc1ccc(CNC(=O)Cn2nc3c(c2NC(=O)Cc2cccs2)CSC3)cc1` ?
Result :: 42

Query :: Try this compound next: `CC(C)(C)OC(=O)COc1ccc2cc(-c3ccccc3)c(=O)oc2c1`
Result :: 44

Query :: Try this compound next: `Cc1nc(/N=N/c2ccc(C(=O)[O-])cc2)c(COP(=O)([O-])[O-])c(C=O)c1O.[Na+].[Na+].[Na+]`
Result :: 94

Consider the additional compound presented here.
Query :: Which measured DNA Pol value corresponds to O=C(NC(C(Cl)Cl)S(=O)(=O)c1ccccc1)c1ccccc1 (stereo not shown) ?
Result :: 41

---

- Subject of test: P. falciparum apicoplast DNA polymerase (Pf-apPOL) (Plasmodium falciparum)
- Assay procedure: Fluorescence-based high-throughput DNA polymerase assay (molecular beacon), primary screen and dose-response
- Assay type: biochemical
- Condition info: DRC-1; 90'; concentration 20
Decision: % inhibition Apol 90' >= 60% yields T, all other cases yield F.

Query :: Please check the record `CN1CC(=Cc2ccco2)C(=O)C(=Cc2ccco2)C1` and state if its % inhibition Apol 90' is at or above 60%.
Result :: F

Query :: Try this compound next: `COc1cc(/C=C2\S/C(=N/C(C)=O)NC2=O)cc(Br)c1OCC(=O)O`
Result :: F

Query :: Try this compound next: `O=C(O)c1ccc(-c2nc3cc(-c4ccc5nc(-c6ccc(C(=O)O)cc6)[nH]c5c4)ccc3[nH]2)cc1`
Result :: T

Query :: Try this compound next: `COc1ccc(C=C2Oc3c(ccc4c3CN(c3ccc5c(c3)OCO5)CO4)C2=O)cc1OC`
Result :: F

Query :: Try this compound next: CCOc1ccccc1-c1nc(-c2ccc(=O)[nH]c2)no1 [Molecule 76, CCOc1ccccc1c1onc(n1)c1ccc(=O)[nH]c1]
Result :: F

***
Query :: Please check the record `O=C(Nc1cccc(Cl)c1)Nc1nnc(-c2ccncc2)s1` and state if its % inhibition Apol 90' is at or above 60%.
Result :: T

Query :: Try this compound next: `CC(C)(C)c1cc(C(=O)C(C#N)=NNc2cccc(Cl)c2)no1`
Result :: T

Query :: Try this compound next: O=C(c1c[nH]c2ncccc12)N1CCCCCC1 [Molecule 51, O=C(c1c[nH]c2c1cccn2)N1CCCCCC1]
Result :: F

Query :: Try this compound next: `CCCCCCCCCCCCCCCCCC(=O)CCN(C)C`
Result :: F

Query :: Try this compound next: `O=c1cc(-c2ccccc2)oc2c(O)c(O)ccc12`
Result :: F

Query :: Try this compound next: O=C(Cn1ccc2c(=O)[nH]ccc21)Nc1cccc(Cl)c1 [Molecule 23, O=C(Cn1ccc2c1cc[nH]c2=O)Nc1cccc(c1)Cl]
Result :: T

Query :: Try this compound next: `CC(C)(C)OC(=O)COc1ccc2cc(-c3ccccc3)c(=O)oc2c1`
Result :: F

---

- Subject of test: P. falciparum apicoplast DNA polymerase (Pf-apPOL) (Plasmodium falciparum, UniProt Q8ILY1)
- Assay procedure: Fluorescence-based high-throughput DNA polymerase assay (molecular beacon), primary screen and dose-response
- Format: biochemical
- Condition info: DRC-2; 5'; conc 20
Hi there, I'd appreciate the recorded % inhibition Apo pol 5' for every entry that follows.
Answers are plain numbers, in %.

Field: example entries. Status: answers known.
Query :: Which measured % inhibition Apo pol 5' value corresponds to Cc1cccc(NC(=O)Cn2ccc3c(=O)[nH]ccc32)c1C [Molecule 11, O=C(Cn1ccc2c1cc[nH]c2=O)Nc1cccc(c1C)C] ?
Result :: 49

Query :: Try this molecule next: Cc1cc(C)c2c(c1)C1C=CCC1C(c1ccc(C(=O)O)cc1)N2 (centres unmarked)
Result :: 58

Query :: Try this molecule next: `C=CC1=C(C)c2cc3[nH]c(cc4nc(cc5[nH]c(cc1n2)c(C)c5CCC(=O)O)C(CCC(=O)O)=C4C)c(C)c3C=C`
Result :: 49

Query :: Try this molecule next: CCOc1nc2cccc(C(=O)OC(C)OC(=O)OC3CCCCC3)c2n1Cc1ccc(-c2ccccc2-c2nnn[nH]2)cc1 (centres unmarked)
Result :: 55

Query :: Try this molecule next: `C=CCOc1c(Br)cc(Br)cc1/C=C1\SC(=N)NC1=O`
Result :: 43

Query :: Try this molecule next: `Cc1ccc(CNC(=O)c2cnn3c(O)cc(CSc4ccc(Cl)cc4)nc23)cc1`
Result :: 58

For every listed record, write down its % inhibition Apo pol 5'.
1. Cc1ccc(NC(=O)Cn2ccc3c(=O)[nH]ccc32)c(C)c1
2. CC(C)CCNC(=O)c1cnn2c(O)cc(CSc3ccc(Cl)cc3)nc12

Result ::
1: 44; 2: 59

---

- Subject of test: UniProt:Q8ILY1
- Assay procedure: Fluorescence-based high-throughput DNA polymerase assay (molecular beacon), primary screen and dose-response
- Format: biochemical
- Condition info: DRC-1; 90'; concentration 2.5
Property label: % inhibition Apol 90' (%)
Answers are plain numbers, in %.

Query :: Which measured % inhibition Apol 90' value corresponds to O=C(NC(C(Cl)Cl)S(=O)(=O)c1ccccc1)c1ccccc1 (centres unmarked) [KU0045239] ?
Result :: 13.64

Query :: Try this molecule next: O=c1cc(-c2ccccc2)oc2c(O)c(O)ccc12 [Molecule 84, Oc1ccc2c(c1O)oc(cc2=O)c1ccccc1]
Result :: 6.487

Query :: Try this molecule next: CCN1C(=O)C(=Cc2cccc(OC)c2O)SC1=S [Molecule 78, CCN1C(=S)SC(=Cc2cccc(c2O)OC)C1=O]
Result :: -2.637

Query :: Try this molecule next: O=C(O)CC1SC(c2ccc3c(c2)OCO3)=NC1=O (centres unmarked) [Molecule 69, OC(=O)CC1SC(=NC1=O)c1ccc2c(c1)OCO2]
Result :: 0.8612

Query :: Try this molecule next: COc1ccc(-c2cc(=O)c3cc(O)ccc3o2)cc1OC [KU0193655]
Result :: 2.413

Query :: Try this molecule next: O=C(Nc1cccc(C(=O)Nc2ccc(S(=O)(=O)[O-])c3cc(S(=O)(=O)[O-])cc(S(=O)(=O)[O-])c23)c1)Nc1cccc(C(=O)Nc2ccc(S(=O)(=O)[O-])c3cc(S(=O)(=O)[O-])cc(S(=O)(=O)[O-])c23)c1.[Na+].[Na+].[Na+].[Na+].[Na+].[Na+] [Molecule 39]
Result :: -1.332

Query :: Try this molecule next: NC(=O)c1cc[n+](CC2=C(C(=O)[O-])N3C(=O)[C@@H](NC(=O)[C@@H](c4ccccc4)S(=O)(=O)[O-])[C@H]3SC2)cc1.[Na+] [Molecule 9]
Result :: 3.442

Consider the additional molecule presented here.
Query :: Which measured % inhibition Apol 90' value corresponds to COCCN(CCOC)Cc1c(O)ccc2c1OC(=Cc1cc(Br)ccc1OC)C2=O [KU0198471] ?
Result :: 0.2446

---

- Subject of test: bacteriophage T4 DNA polymerase (Enterobacteria phage T4, UniProt P04415)
- Construct: made in house
- Sequence (P04415 whole entry): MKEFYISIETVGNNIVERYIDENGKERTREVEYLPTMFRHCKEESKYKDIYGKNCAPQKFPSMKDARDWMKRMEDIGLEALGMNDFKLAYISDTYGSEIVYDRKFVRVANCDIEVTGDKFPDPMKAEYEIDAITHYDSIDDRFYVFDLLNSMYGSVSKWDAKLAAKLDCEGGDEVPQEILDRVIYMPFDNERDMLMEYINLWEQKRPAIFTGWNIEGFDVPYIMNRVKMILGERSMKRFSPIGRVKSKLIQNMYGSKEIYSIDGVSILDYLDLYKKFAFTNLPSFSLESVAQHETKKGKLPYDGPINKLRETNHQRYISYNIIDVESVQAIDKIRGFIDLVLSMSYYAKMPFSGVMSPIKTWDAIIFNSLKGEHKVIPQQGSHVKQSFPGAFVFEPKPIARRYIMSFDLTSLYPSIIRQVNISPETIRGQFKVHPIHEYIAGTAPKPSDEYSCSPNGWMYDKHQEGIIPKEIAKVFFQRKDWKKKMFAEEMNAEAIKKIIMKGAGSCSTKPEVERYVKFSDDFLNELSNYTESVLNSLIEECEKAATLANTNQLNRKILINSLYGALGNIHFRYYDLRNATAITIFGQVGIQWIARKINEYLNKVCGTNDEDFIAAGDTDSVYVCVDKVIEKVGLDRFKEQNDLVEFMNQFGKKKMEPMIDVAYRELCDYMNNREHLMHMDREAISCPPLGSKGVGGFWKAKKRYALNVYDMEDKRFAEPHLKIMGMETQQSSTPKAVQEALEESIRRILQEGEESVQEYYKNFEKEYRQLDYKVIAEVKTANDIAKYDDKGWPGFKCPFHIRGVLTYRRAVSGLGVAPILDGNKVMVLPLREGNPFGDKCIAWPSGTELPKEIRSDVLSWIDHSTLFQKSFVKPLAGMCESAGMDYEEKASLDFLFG
- Assay procedure: Counter-screen against bacteriophage T4 DNA polymerase
- Format: biochemical
- Condition info: DRC-2; read at 90'; concentration 80
Property label: % inhibition T4 90' 80 (%)
Numbers only, in %.

Field: example entries. Status: answers known.
Query :: Notebook entry, bacteriophage T4 DNA polymerase (Enterobacteria phage T4, UniProt P04415) assay: % inhibition T4 90' 80 of `Cc1cc2[nH]c(C(=O)Nc3ccc(F)cc3)c(CN3CCOCC3)c2s1` = ?
Result :: 25

Query :: Try this compound next: `Cn1nc(-c2nnc(-c3ccccc3F)o2)c2c1CCN(C(=O)c1ccccc1Cl)C2`
Result :: 10

Query :: Try this compound next: `CC(=O)OCC1=C(C(=O)[O-])N2C(=O)[C@@H](NC(=O)Cc3cccs3)[C@H]2SC1.[Na+]`
Result :: 41

Query :: Try this compound next: O=C1CSC2=NC3=C(CCc4ccccc43)C(c3cccs3)N12 (centres unmarked)
Result :: 11

Query :: Try this compound next: `O=C(CCc1csc(NC(=O)Nc2ccccc2)n1)Nc1nc2ccccc2s1`
Result :: 17

Query :: Try this compound next: C#CC(C=CC)OC(=O)c1ccccc1C(=O)O (centres unmarked)
Result :: 0.315

Query :: Try this compound next: Cc1ccc(N2CCC(NC(=O)Cc3cccs3)C2=O)cc1C (centres unmarked)
Result :: 37

Query :: Try this compound next: COc1ccc(C2CC(c3ccc(Cl)cc3Cl)Nc3nc(N)nn32)cc1OC (centres unmarked)
Result :: -1

Query :: Try this compound next: `Cn1nc(-c2nc(-c3ccccc3)no2)c2c1CCN(C(=O)Cc1cccs1)C2`
Result :: 22

Query :: Try this compound next: `COc1ccc(/C=C/c2cc(C(=O)O)c3ccccc3n2)cc1`
Result :: 27

For every listed record, write down its % inhibition T4 90' 80.
1. COc1ccccc1CC(=O)N1CCc2c(nc3cc(-c4ccccc4Cl)[nH]n3c2=O)C1
2. CCCc1ccc(Oc2coc3cc(OC)ccc3c2=O)cc1
3. CC(C)CC(C(=O)O)N1C(=O)C2C3C=CC(C2C1=O)C1C(=O)N(C(CC(C)C)C(=O)O)C(=O)C31 (centres unmarked)
4. CC(=O)Nc1cc(C(=O)c2cccs2)nn(-c2ccc(Cl)cc2)c1=O
5. Cc1ccsc1Cn1c(C)ccc1C

Result ::
1: -47; 2: -1.8; 3: 52; 4: -0.743; 5: 5

For every listed record, write down its % inhibition T4 90' 80.
1. Nc1cc(Oc2ccc(O)c(N)c2)ccc1O
2. Cc1nc(C)c2c(n1)N(CC1CCCCC1)C(=O)CC2
3. Cc1cccc(-c2noc(C(=O)NNC(=O)C(Cl)(Cl)Cl)n2)c1
4. N#Cc1c(O)nc(N2CCCCC2)nc1-c1ccc2c(c1)OCO2
5. O=C(c1ccccc1)N1CCc2c(nc3cc(-c4ccccc4)[nH]n3c2=O)C1

Result ::
1. -9
2. 11
3. -1.44
4. 3.63
5. -21
